molecular target: hMC4-R (Homo sapiens (Human)); assay: High and low density hMC4-R functional assay (cAMP, HEK293-T-REx-MC4-R cells); format: cell-based; settings: 10 ng/mL Doxycycline (high density hMC4-R system); NDP-α-MSH = 100%; read-out: Intrinsic Activity (%)
Sequence (P32245 whole entry): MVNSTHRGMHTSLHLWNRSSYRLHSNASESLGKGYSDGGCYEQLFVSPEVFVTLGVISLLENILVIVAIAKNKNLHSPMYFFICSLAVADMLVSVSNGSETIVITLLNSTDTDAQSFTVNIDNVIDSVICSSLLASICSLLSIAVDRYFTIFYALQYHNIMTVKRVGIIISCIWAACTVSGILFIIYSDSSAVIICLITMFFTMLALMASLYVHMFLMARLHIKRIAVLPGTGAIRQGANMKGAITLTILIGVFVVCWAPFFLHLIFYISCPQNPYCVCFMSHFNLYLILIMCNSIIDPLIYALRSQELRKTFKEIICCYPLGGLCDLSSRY
Here, each record is paired with measured Emax data.

compound="CC(=O)N[C@H](CCCNC(=N)N)C(=O)N[C@H]1CC(=O)NCCCC[C@@H](C(N)=O)NC(=O)[C@H](Cc2c[nH]c3ccccc23)NC(=O)[C@H](CCCNC(=N)N)NC(=O)[C@@H](Cc2ccc(C#N)cc2)NC(=O)[C@H](CCC(N)=O)NC1=O [Example 81]" readout_type=Emax recorded_result=85%

Emax reported for this compound COc1cccc(C[C@H]2NC(=O)[C@H](CCN)NC(=O)[C@@H](NC(=O)[C@H](CCCNC(=N)N)NC(C)=O)CCC(=O)NCCC[C@@H](C(N)=O)NC(=O)[C@H](Cc3c[nH]c4ccccc34)NC(=O)[C@H](CCCNC(=N)N)NC2=O)c1 [Example 87] : 100%

Emax reported for this compound CC(=O)N[C@@H](CCCNC(=N)N)C(=O)N[C@H]1CCC(=O)NCCC[C@@H](C(N)=O)NC(=O)[C@H](Cc2c[nH]c3ccccc23)NC(=O)[C@H](CCCNC(=N)N)NC(=O)[C@@H](Cc2cc(F)c(F)c(F)c2)NC(=O)[C@H](CCN)NC1=O [Example 27] : 97%
